- assay notes: self-splicing fitness, log relative to wild type (ln ratio); higher = more splicing; Tetrahymena group I intron in knt gene, E. coli kanamycin selection, DiMSum; sequences stand for … in CUCUCU…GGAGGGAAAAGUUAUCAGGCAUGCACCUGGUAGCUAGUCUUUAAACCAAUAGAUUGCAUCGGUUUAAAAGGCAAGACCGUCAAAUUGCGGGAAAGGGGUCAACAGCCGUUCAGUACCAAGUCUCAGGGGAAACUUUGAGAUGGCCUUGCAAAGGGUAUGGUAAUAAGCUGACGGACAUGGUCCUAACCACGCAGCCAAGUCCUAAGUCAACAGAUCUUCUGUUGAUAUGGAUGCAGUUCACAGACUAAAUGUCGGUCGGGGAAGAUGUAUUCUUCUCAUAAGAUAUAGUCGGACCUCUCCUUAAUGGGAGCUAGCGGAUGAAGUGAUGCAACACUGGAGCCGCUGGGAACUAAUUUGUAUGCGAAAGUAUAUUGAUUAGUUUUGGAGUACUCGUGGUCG;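 note: selection with 25 µg/mL kanamycin versus none on LB agar overnight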
- condition details: 30 °C
measure name: self-splicing fitness (ln)

Inquiry: Tell me the measured self-splicing fitness (ln) of "AAACAGCAAUAUUACGGUGC" , please.
Reply text: -2.97

Inquiry: Tell me the measured self-splicing fitness (ln) of "UAGAAGCAAUAUUACGGCCU" , please.
Reply text: -0.838

Inquiry: Tell me the measured self-splicing fitness (ln) of "AACCAGCAAUAUUACGGUUC" , please.
Reply text: -3.75

Inquiry: Tell me the measured self-splicing fitness (ln) of "GGGGAGCAAUAUUACGGAGC" , please.
Reply text: -2.66

Inquiry: Tell me the measured self-splicing fitness (ln) of "AUGGAGCAAUAUUACGUUUG" , please.
Reply text: -3.38

Inquiry: Tell me the measured self-splicing fitness (ln) of "UGAAAGCAAUAUUACGUUUA" , please.
Reply text: -0.985

Inquiry: Tell me the measured self-splicing fitness (ln) of "CCAGAGCAAUAUUACGGACA" , please.
Reply text: -3.25

Inquiry: Tell me the measured self-splicing fitness (ln) of "GUAAAGCAAUAUUACGCUCG" , please.
Reply text: -0.0287

Inquiry: Tell me the measured self-splicing fitness (ln) of "GUUCAGCAAUAUUACGUUAA" , please.
Reply text: -1.02

Inquiry: Tell me the measured self-splicing fitness (ln) of "AUAAAGCAAUAUUACGAUCC" , please.
Reply text: -1.21

Inquiry: Tell me the measured self-splicing fitness (ln) of "GCGUAGCAAUAUUACGGAGA" , please.
Reply text: -2.63

Inquiry: Tell me the measured self-splicing fitness (ln) of "CAACAGCAAUAUUACGUAGU" , please.
Reply text: -3.22

Inquiry: Tell me the measured self-splicing fitness (ln) of "UCAAAGCAAUAUUACGAAGU" , please.
Reply text: -2.96

Inquiry: Tell me the measured self-splicing fitness (ln) of "CGGUAGCAAUAUUACGCUUG" , please.
Reply text: -2.07

Inquiry: Tell me the measured self-splicing fitness (ln) of "GAUCAGCAAUAUUACGUGUU" , please.
Reply text: -1.75

Inquiry: Tell me the measured self-splicing fitness (ln) of "CAGAAGCAAUAUUACGCAUU" , please.
Reply text: -4.37

Inquiry: Tell me the measured self-splicing fitness (ln) of "UAGUAGCAAUAUUACGACCC" , please.
Reply text: -0.998

Inquiry: Tell me the measured self-splicing fitness (ln) of "AGAUAGCAAUAUUACGAACC" , please.
Reply text: 0.553

Inquiry: Tell me the measured self-splicing fitness (ln) of "UCAAAGCAAUAUUACGGCGU" , please.
Reply text: -0.917

Inquiry: Tell me the measured self-splicing fitness (ln) of "GUUCAGCAAUAUUACGAUAC" , please.
Reply text: -0.948

Inquiry: Tell me the measured self-splicing fitness (ln) of "AACAAGCAAUAUUACGCAGU" , please.
Reply text: -3.43

Inquiry: Tell me the measured self-splicing fitness (ln) of "AUUAAGCAAUAUUACGGAUC" , please.
Reply text: -1.85

Inquiry: Tell me the measured self-splicing fitness (ln) of "ACUUAGCAAUAUUACGUAUC" , please.
Reply text: -3.56

Inquiry: Tell me the measured self-splicing fitness (ln) of "GAUCAGCAAUAUUACGUGCG" , please.
Reply text: -1.16

Inquiry: Tell me the measured self-splicing fitness (ln) of "GACAAGCAAUAUUACGGCUU" , please.
Reply text: -0.995

Inquiry: Tell me the measured self-splicing fitness (ln) of "CGUAAGCAAUAUUACGCACU" , please.
Reply text: -2.27

Inquiry: Tell me the measured self-splicing fitness (ln) of "AUGAAGCAAUAUUACGGAGC" , please.
Reply text: -3.69

Data provenance is the supplement of paper PMC7877785.
